Provenance of the data: paper PMC10779086

- method: Blood-brain barrier permeability (PAMPA-BBB)
- Assay type: in vitro ADME
outcome_measure: 1-Rm (membrane retention)
Answer using only a numeral; do not append any unit.

Previously resolved entries follow.
- Cc1ccc(C(=O)c2cc(O)c(O)c([N+](=O)[O-])c2)cc1: 0.9
- COc1cc(C(=O)c2cc(C)cc(C)c2)cc([N+](=O)[O-])c1O: 0.9
- COc1cc(C(=O)c2ccc(C)cc2C)cc([N+](=O)[O-])c1O: 1.0

Okay, next one:
Query string: Hello, please tell me recorded 1-Rm (membrane retention) for this one: `COc1cc(C(=O)c2ccc(C)cc2)cc([N+](=O)[O-])c1O`
Result string: 0.9

====

- method: Chromatographic Hydrophobicity Index (CHI)
- Format: physicochemical
- test_conditions: pH 10.5
outcome_measure: CHI (pH 10.5)
API note: the answer field is a bare number with no unit suffix.

Please review the following examples before continuing.
* COc1cc(C(=O)c2ccc(C)cc2C)cc([N+](=O)[O-])c1O | 50.2
* COc1cc(C(=O)c2ccc(C)cc2)cc([N+](=O)[O-])c1O | 46.0
* Cc1ccc(C(=O)c2cc(O)c(O)c([N+](=O)[O-])c2)cc1 | 49.3

Query string: Supply CHI (pH 10.5) value. Item: `COc1cc(C(=O)c2cc(C)cc(C)c2)cc([N+](=O)[O-])c1O`
Result string: 51.7

====

A collection of compounds and their measured Papp
- method: Blood-brain barrier permeability (PAMPA-BBB)
- Type: in vitro ADME
- test_conditions: PBS pH 7.4, read-out: BBB-Pe
The reply should contain only the number, in ×10⁻⁶ cm/s.

Past entries and their recorded results:
- COc1cc(C(=O)c2ccc(C)cc2)cc([N+](=O)[O-])c1O: 14.4
- COc1cc(C(=O)c2cc(C)cc(C)c2)cc([N+](=O)[O-])c1O: 15.3
- COc1cc(C(=O)c2ccc(C)cc2C)cc([N+](=O)[O-])c1O: 13.5

Proceed to the following item.
Query string: Let me know recorded Papp for `Cc1ccc(C(=O)c2cc(O)c(O)c([N+](=O)[O-])c2)cc1` , thanks.
Result string: 5.6

====

- method: Caco-2 intestinal permeability
- Type: in vitro ADME, human
- test_conditions: human, Caco-2; A→B, 10 μM, 60 min, pH 7.4
- Method: Caco-2 cells (cod. HTB-37) were bought from ATCC (American Type Culture Collection, Rockville, MD, USA). […] The test substance permeability was measured in both directions (apical to basolateral [A→B] and basolateral to apical [B→A]) across the cell monolayer. […] Monolayer integrity of Caco-2 cells was evaluated by TEER measurements during the experiment and by Lucifer Yellow test after the incubation with the test compound. […]
Threshold 20 ×10⁻⁶ cm/s. Papp A→B at 60 min, 10 μM below it: Met. Papp A→B at 60 min, 10 μM at it or above: Not met.

Example entries and their recorded answers appear below.
• COc1cc(C(=O)c2ccc(C)cc2)cc([N+](=O)[O-])c1O = Met
• C[C@H]1O[C@@H](O[C@H]2[C@@H](O)C[C@H](O[C@H]3[C@@H](O)C[C@H](O[C@H]4CC[C@@]5(C)[C@H](CC[C@@H]6[C@@H]5C[C@@H](O)[C@]5(C)[C@@H](C7=CC(=O)OC7)CC[C@]65O)C4)O[C@@H]3C)O[C@@H]2C)C[C@H](O)[C@@H]1O [Digoxin, reference compound] = Met
• Cc1ccc(C(=O)c2cc(O)c(O)c([N+](=O)[O-])c2)cc1 = Met
• COCCc1ccc(OCC(O)CNC(C)C)cc1 (stereo not drawn) [Metoprolol, reference compound] = Not met
• COc1cc(C(=O)c2ccc(C)cc2C)cc([N+](=O)[O-])c1O = Not met

Continue with the compound presented below.
Query string: Is it true that Papp A→B at 60 min, 10 μM reported for `COc1cc(C(=O)c2cc(C)cc(C)c2)cc([N+](=O)[O-])c1O` is less than 20 ×10⁻⁶ cm/s?
Result string: Not met
